Data origin: paper PMC10709440

target_system: Drosophila OR85b (Drosophila melanogaster, UniProt Q9VHQ7)
Construct: expressed in transfected cells
Sequence (Q9VHQ7 1-390): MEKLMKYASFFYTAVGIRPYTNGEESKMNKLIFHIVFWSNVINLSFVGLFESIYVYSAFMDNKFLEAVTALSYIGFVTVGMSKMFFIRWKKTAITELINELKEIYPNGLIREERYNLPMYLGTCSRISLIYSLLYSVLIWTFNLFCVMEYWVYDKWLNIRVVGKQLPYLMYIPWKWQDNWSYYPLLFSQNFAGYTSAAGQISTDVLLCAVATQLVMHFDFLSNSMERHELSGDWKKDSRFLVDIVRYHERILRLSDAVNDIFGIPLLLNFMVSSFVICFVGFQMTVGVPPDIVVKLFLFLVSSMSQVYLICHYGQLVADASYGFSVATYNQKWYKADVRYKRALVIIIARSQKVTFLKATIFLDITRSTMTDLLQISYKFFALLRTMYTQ
Sequence (Q9VNB5 1-486 partner): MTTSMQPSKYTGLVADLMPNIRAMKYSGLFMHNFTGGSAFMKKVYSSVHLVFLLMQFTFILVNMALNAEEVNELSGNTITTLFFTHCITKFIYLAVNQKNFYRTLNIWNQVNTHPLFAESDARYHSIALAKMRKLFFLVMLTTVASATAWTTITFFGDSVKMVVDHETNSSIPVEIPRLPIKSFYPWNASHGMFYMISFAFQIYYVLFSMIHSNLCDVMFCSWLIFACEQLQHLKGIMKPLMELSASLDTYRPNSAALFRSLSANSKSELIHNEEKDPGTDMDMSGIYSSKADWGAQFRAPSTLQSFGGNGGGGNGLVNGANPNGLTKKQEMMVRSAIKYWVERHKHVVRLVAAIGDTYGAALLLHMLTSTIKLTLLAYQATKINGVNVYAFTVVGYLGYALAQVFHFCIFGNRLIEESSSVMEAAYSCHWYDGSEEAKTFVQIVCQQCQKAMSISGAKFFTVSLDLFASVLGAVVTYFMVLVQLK
measurement_protocol: Calcium ion fluorescence (GCaMP6) assay, OR85b stable HEK293 cell line
Type: cell-based
test_conditions: OR85b cell line; cc. 10 µM; VUAA1-normalized response, mean of biological replicates
observable: Average response
Numbers only.

Some compounds with recorded Average response:
>  <compound>
CC1=CCC2CC1C2(C)C (stereo not shown)

>  <Average response>
0.00

$$$$
>  <compound>
CC1=CCC2C(C1)C2(C)C (stereo not shown)

>  <Average response>
0.00

$$$$
>  <compound>
CC/C=C/CCO

>  <Average response>
0.00

$$$$

// each compound listed below needs its Average response
1. CC(=O)OCC(C)C [isobutyl acetate]
2. COc1cccc(OC)c1

**Result**
[0.00, 0.0268]
